Experiment: Inhibition of bocillin FL binding to Pseudomonas aeruginosa PAO1 penicillin-binding protein 4
READOUT: IC50 (µg/mL)
Give the value in µg/mL but do not write µg/mL after it.

C[C@@H](O)[C@H]1C(=O)N2C(C(=O)O)=C(SCCNC=N)C[C@H]12 [IMIPENEM ANHYDROUS]: 0.01

Lookup result for CO/N=C(\C(=O)N[C@@H]1C(=O)N2C(C(=O)[O-])=C(C[N+]3(C)CCCC3)CS[C@H]12)c1csc(N)n1 ; measured IC50: 0.3

IC50 reported for this compound C[C@H]1[C@H](NC(=O)/C(=N\OC(C)(C)C(=O)O)c2csc(N)n2)C(=O)N1S(=O)(=O)O (stereo in doubt) : 16

The reported IC50 of the compound Nc1nc(/C(=N/O)C(=O)N[C@@H]2C(=O)N3C(C(=O)O)=C(/C=C4\CCN([C@@H]5CCNC5)C4=O)CS[C@H]23)ns1 was 0.2

IC50 recorded for this compound, CC(C)(O/N=C(\C(=O)N[C@@H]1C(=O)N2C(C(=O)[O-])=C(C[n+]3ccccc3)CS[C@H]12)c1csc(N)n1)C(=O)O , is 2
